B1: scFv; the commonest letter at each place (parent)
chain 1: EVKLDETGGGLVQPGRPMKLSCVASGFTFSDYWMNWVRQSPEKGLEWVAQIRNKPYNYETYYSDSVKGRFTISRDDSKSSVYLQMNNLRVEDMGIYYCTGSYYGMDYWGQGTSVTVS
chain 2: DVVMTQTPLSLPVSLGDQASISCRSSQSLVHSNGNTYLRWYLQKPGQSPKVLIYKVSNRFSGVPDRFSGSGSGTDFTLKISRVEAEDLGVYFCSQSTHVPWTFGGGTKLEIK

Variants of: B1
Assay Method Text: yeast surface expression (ratio to wild type); higher = more expressed
Experimental Context: format: scFv 4-4-20, heavy + light
Measured Attribute: yeast surface expression
Keep the answer to the number alone.

Study these solved cases before continuing.
- Mutations: "chain 1 T28A F29K"
  yeast surface expression: 0.821
- Mutations: "chain 1 W108H"
  yeast surface expression: 0.333
- Mutations: "chain 1 F29L M34D"
  yeast surface expression: 0.656
- Mutations: "chain 1 F29C D31Y"
  yeast surface expression: 0.522
- Mutations: "chain 1 S101K Y103R"
  yeast surface expression: 0.714

Any idea what its yeast surface expression is? The variant is chain 1 D106H Y107D
0.284

Any idea what its yeast surface expression is? The variant is chain 1 M105L Y107V
1.08

Any idea what its yeast surface expression is? The variant is chain 1 F29G D31R
0.931

Any idea what its yeast surface expression is? The variant is chain 1 Y32F V37I
0.835

Any idea what its yeast surface expression is? The variant is chain 1 Y102Q Y107C
0.353

Any idea what its yeast surface expression is? The variant is chain 1 T28L W33Y
0.826

Any idea what its yeast surface expression is? The variant is chain 1 F29Y M34K
0.646

Any idea what its yeast surface expression is? The variant is chain 1 D31A Y32K M34C
1.1

Any idea what its yeast surface expression is? The variant is chain 1 Y32R W36V
0.547

Any idea what its yeast surface expression is? The variant is chain 1 F29P S30Q
1.05

Any idea what its yeast surface expression is? The variant is chain 1 Y102A D106L
0.691

Any idea what its yeast surface expression is? The variant is chain 1 Y102E M105P
0.839

Any idea what its yeast surface expression is? The variant is chain 1 W36L V37Q
0.537

Any idea what its yeast surface expression is? The variant is chain 1 M34L N35T
0.824

Any idea what its yeast surface expression is? The variant is chain 1 G100N Y102N
0.643

Any idea what its yeast surface expression is? The variant is chain 1 S101T
0.88

Any idea what its yeast surface expression is? The variant is chain 1 S30L W33D
0.844

Any idea what its yeast surface expression is? The variant is chain 1 G104R M105R
0.672

Any idea what its yeast surface expression is? The variant is chain 1 S101D Y107E
1.03

Any idea what its yeast surface expression is? The variant is chain 1 S101L Y103W Y107W
0.29
